Tested Target: Protein farnesyltransferase (Homo sapiens, UniProt P49354+P49356)
Test Summary: In vitro inhibition of farnesyltransferase farnesylation of the H-ras oncogene
Format: protein-complex assay
Reported IC50 by item:
Expressed in nM, but write only the number.

Some compounds with known IC50 results, for comparison:
* CC(C)(C)OC(=O)NCC(=O)N1CCN(C2c3ccc(Cl)cc3CCc3cccnc32)CC1 (centres undefined) | 4800
* CC(C)(C(=O)N1CCN(C2c3ccc(Cl)cc3CCc3cccnc32)CC1)c1ccc[n+]([O-])c1 (centres undefined) | 1260

Ask: Please report the measured IC50 for CN1CCCC(CC(=O)N2CCN(C3c4ccc(Cl)cc4CCc4cccnc43)CC2)C1 (centres undefined)
Result: 1190

Ask: Please report the measured IC50 for CN1CCCC(NC(=O)N2CCN(C3c4ccc(Cl)cc4CCc4cc(Br)cnc43)CC2)C1 (centres undefined)
Result: 54

Ask: Please report the measured IC50 for O=C(Nc1cc[n+]([O-])cc1)N1CCN(C2c3ccc(Cl)cc3CCc3cc(Br)cnc32)CC1 (centres undefined)
Result: 210

Ask: Please report the measured IC50 for O=C(Oc1ccccc1)N1CCN(C2c3ccc(Cl)cc3C=Cc3cccnc32)CC1 (centres undefined)
Result: 880

Ask: Please report the measured IC50 for O=C(Oc1ccc[n+]([O-])c1)N1CCN(C2c3ccc(Cl)cc3CCc3cc(Br)cnc32)CC1 (centres undefined)
Result: 280

Ask: Please report the measured IC50 for O=C(NCc1ccccc1)N1CCN(C2c3ccc(Cl)cc3CCc3cccnc32)CC1 (centres undefined)
Result: 4100

Ask: Please report the measured IC50 for COCC[C@H]1CN(C2c3ccc(Cl)cc3CCc3cc(Br)cnc32)CCN1C(=O)CC1CCN(C(N)=O)CC1 (some centres undefined)
Result: 92

----------
System: Cynomolgus monkey
Test Summary: Maximal plasma concentration in cynomolgus monkeys after 10 mg/kg oral dose
Type: ADME, organism-based, Macaca fascicularis
Set-up: dose 10 mg/kg, route oral
Condition Label: in vivo
Property Measured: Cmax (µM)
Expressed in µM, but write only the number.

Ask: Please report the measured Cmax for O=C(Cc1cc[n+]([O-])cc1)N1CCN(C2c3ccc(Cl)cc3CCc3cc(Br)cnc32)CC1 (stereo unspecified)
Result: 3

----------
Test Summary: Maximal plasma concentration in nude mice after 25 mg/kg oral dose
Assay type: ADME, organism-based
Set-up: dose 25 mg/kg, route oral
Condition Label: mouse
Property Measured: Cmax

Ask: Please report the measured Cmax for CN1CCC(CC(=O)N2CCN(C3c4ccc(Cl)cc4CCc4cc(Br)cnc43)CC2)CC1 (stereo unspecified)
Result: 4 µM

----------
Test Summary: In vivo antitumor efficacy in cynomolgus monkeys by injecting a dose of 25 mg/kg, as the micronised free base in corn oil, perorally and the total drug exposure was determined (0-8 hr)
Type: ADME, organism-based, Macaca fascicularis
Set-up: time < 8 hr, dose 25 mg/kg, route oral
Condition Label: cynomolgus monkey, po
Property Measured: AUC at 8 h (µg·h/mL)
Expressed in µg·h/mL, but write only the number.

Ask: Please report the measured AUC at 8 h for O=C(Cc1cccnc1)N1CCN(C2c3ccc(Cl)cc3CCc3cccnc32)CC1 (stereo unspecified)
Result: 0.45

----------
Test Summary: Maximal plasma concentration in nude mice after 25 mg/kg oral dose
Type: ADME, organism-based
Parameters: dose 25 mg/kg, route oral
Condition Label: mouse
Reported log10 Cmax by item:
Quick note: numbers are log10 of Cmax, with µM as the unit.

Some molecules with known log10 Cmax results, for comparison:
• CN1CCC(CC(=O)N2CCN(C3c4ccc(Cl)cc4CCc4cc(Br)cnc43)CC2)CC1 (stereo not given) = 1.48
• CNC(=O)N1CCC(CC(=O)N2CCN(C3c4ccc(Cl)cc4CCc4cc(Br)cnc43)CC2)CC1 (stereo not given) = 1.90
• O=C(CC1CCNCC1)N1CCN(C2c3ccc(Cl)cc3CCc3cc(Br)cnc32)CC1 (stereo not given) = 0.48
• NC(=O)N1CCC(CC(=O)N2CCN(C3c4ccc(Cl)cc4CCc4cc(Br)cnc43)CC2)CC1 (stereo not given) = 1.59

Ask: Please report the measured log10 Cmax for CN1CCCC(CC(=O)N2CCN(C3c4ccc(Cl)cc4CCc4cc(Br)cnc43)CC2)C1 (stereo not given)
Result: 0.30

----------
Test Summary: In vivo antitumor efficacy in nude mice by injecting a dose of 25 mg/kg, micronized free base in 20% HPbetaCD, iv and the serum half-life was determined
Assay type: ADME, organism-based
Design: dose 25 mg/kg, route intravenous
Condition Label: mouse
Property Measured: half-life (h)
Expressed in h, but write only the number.

Ask: Please report the measured half-life for NC(=O)N1CCC(CC(=O)N2CCN(C3c4ccc(Cl)cc4CCc4cc(Br)cnc43)CC2)CC1 (stereo unspecified)
Result: 1.5

----------
Test Summary: Bioavailability in cynomolgus monkey (dose 5 mg/kg i.v.)
Format: ADME, organism-based, Macaca fascicularis
Condition Label: in vivo, iv
Reported bioavailability by item:
Expressed in %, but write only the number.

- NC(=O)N1CCC(CC(=O)N2CCN(C3c4ccc(Cl)cc4CCc4cc(Br)cnc43)CC2)CC1 (configuration not stated): 35

Ask: Please report the measured bioavailability for O=C(Cc1cc[n+]([O-])cc1)N1CCN(C2c3ccc(Cl)cc3CCc3cc(Br)cnc32)CC1 (configuration not stated)
Result: 38.5

----------
Test Summary: Maximal plasma concentration in cynomolgus monkeys after 10 mg/kg oral dose
Format: ADME, organism-based, Macaca fascicularis
Design: dose 10 mg/kg, route oral
Condition Label: cynomolgus monkey, plasma
Property Measured: Cmax

• O=C(Cc1cc[n+]([O-])cc1)N1CCN(C2c3ccc(Cl)cc3CCc3cc(Br)cnc32)CC1 (configuration not stated) = 5.7 µM

Now for the compound whose Cmax we want.
Ask: Please report the measured Cmax for O=C(Cc1cc[n+]([O-])cc1)N1CCN(C2c3ccc(Cl)cc3C=Cc3cc(Br)cnc32)CC1 (configuration not stated)
Result: 1.9 µM

----------
Test Summary: In vivo antitumor efficacy in nude mice by injecting a dose of 25 mg/kg, as HCl salt in saline solution, iv and the total drug exposure was determined. (0-4 hr)
Assay type: ADME, organism-based
Parameters: time < 4 hr, dose 25 mg/kg, route intravenous
Condition Label: mouse
Property Measured: AUC at 4 h (µg·h/mL)
Expressed in µg·h/mL, but write only the number.

Ask: Please report the measured AUC at 4 h for CN1CCC(CC(=O)N2CCN(C3c4ccc(Cl)cc4CCc4cccnc43)CC2)CC1 (stereo unspecified)
Result: 4.1

----------
Test Summary: In vivo antitumor efficacy in nude mice by injecting a dose of 25 mg/kg, as HCl salt in saline solution, perorally and the total drug exposure was determined (0-24hr)
Assay type: ADME, organism-based
Set-up: time < 24 hr, dose 25 mg/kg, route oral
Condition Label: mouse, po
The label depends only on AUC at 24 h: MET if it is at least 30000 ng·h/mL, NOT MET if it is smaller.

Look over these answered cases.
• CNC(=O)N1CCC(CC(=O)N2CCN(C3c4ccc(Cl)cc4CCc4cc(Br)cnc43)CC2)CC1 (stereo unspecified) = MET
• CC(=O)N1CCC(CC(=O)N2CCN(C3c4ccc(Cl)cc4CCc4cc(Br)cnc43)CC2)CC1 (stereo unspecified) = NOT MET
• O=C(Cc1cccnc1)N1CCN(C2c3ccc(Cl)cc3CCc3cccnc32)CC1 (stereo unspecified) = NOT MET
• NC(=O)N1CCC(CC(=O)N2CCN(C3c4ccc(Cl)cc4CCc4cc(Br)cnc43)CC2)CC1 (stereo unspecified) = MET
• CN1CCCC(CC(=O)N2CCN(C3c4ccc(Cl)cc4CCc4cc(Br)cnc43)CC2)C1 (stereo unspecified) = NOT MET

For the next question, use this compound.
Ask: Check this compound for AUC at 24 h at or above 30000 ng·h/mL: O=C(CC1CCNCC1)N1CCN(C2c3ccc(Cl)cc3CCc3cc(Br)cnc32)CC1 (stereo unspecified)
Result: NOT MET

----------
Test Summary: Maximal plasma concentration in cynomolgus monkeys after 5 mg/kg oral dose
Type: ADME, organism-based, Macaca fascicularis
Parameters: dose 5 mg/kg, route oral
Condition Label: cynomolgus monkey
Property Measured: Cmax (nM)
Expressed in nM, but write only the number.

Ask: Please report the measured Cmax for O=C(Cc1cc[n+]([O-])cc1)N1CCN(C2c3ccc(Cl)cc3CCc3cc(Br)cnc32)CC1 (stereo unspecified)
Result: 1200

----------
Test Summary: In vivo antitumor efficacy in nude mice 0-24 hr after iperoral dose of 25 mg/kg expressed as Area under the curve
Format: ADME, organism-based
Parameters: time < 24 hr, dose 25 mg/kg
Condition Label: mouse, po
Property Measured: AUC at 24 h (ng·h/mL)
Expressed in ng·h/mL, but write only the number.

Ask: Please report the measured AUC at 24 h for O=C(Cc1cc[n+]([O-])cc1)N1CCN([C@@H]2c3ccc(Cl)cc3CCc3cccnc32)CC1
Result: 6000
